target: T1, recombinant biotinylated human PAR2 extracellular domain (residues 1-75), N-terminal AviTag, C-terminal Flag … (human, UniProt P55085 26-75, biotin on the AviTag (enzymatic biotinylation)); assay: HTRF competition with Par0067 IgG, scFv
T1 construct: also called Bio-human-PAR2 ECD; human PAR2 ECD; not shown: N-terminal AviTag (Avidity LLC); C-terminal Flag and poly Histidine tags
T1 sequence (P55085 26-75): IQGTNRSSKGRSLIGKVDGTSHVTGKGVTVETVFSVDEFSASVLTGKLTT
I'd appreciate it if you could supply Fold IC50 pH 7.4 (Variant v Par0067) values for the items below.
I only need the number, in fold, no unit after it.

*Q* Param item = PaB670078 scFv (scFv, V domains shown, purified scFv; also called ZZ1OZJ-G03) VH: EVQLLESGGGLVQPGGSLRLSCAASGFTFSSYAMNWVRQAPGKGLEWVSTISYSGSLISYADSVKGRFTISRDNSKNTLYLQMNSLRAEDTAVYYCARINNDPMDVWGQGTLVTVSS VL: SIELTQPPSVSVSPGQTASITCSGDNLGKKYVQWYQQKPGQSPVLVIYDDSNRPSGIPERFSGSNSGNTATLTISGTQAMDEADYYCHHWHGHPHTGEHNVFGGGTKLTVL ; retrieve measured Fold IC50 pH 7.4 (Variant v Par0067).
*A* 10.1

*Q* Subsequent entry: PaB670099 scFv (scFv, V domains shown, purified scFv) VH: EVQLLESGGGLVQPGGSLRLSCAASGFTFSSYAMNWVRQAPGKGLEWVSTISYHGSHISYHDSVHHRFTISRDNSKNTLYLQMNSLRAEDTAVYYCARINNDPMDVWGQGTLVTVSS VL: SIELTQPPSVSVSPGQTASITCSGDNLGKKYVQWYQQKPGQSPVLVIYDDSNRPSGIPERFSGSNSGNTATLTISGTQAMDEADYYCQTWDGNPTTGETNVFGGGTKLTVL
*A* 3.9

*Q* Entry PaB670073 scFv (scFv, V domains shown, purified scFv; also called ZZ1L3F-H03) VH: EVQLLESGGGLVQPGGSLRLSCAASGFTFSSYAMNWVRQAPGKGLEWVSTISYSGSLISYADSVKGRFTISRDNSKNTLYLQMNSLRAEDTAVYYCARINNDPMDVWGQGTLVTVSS VL: SIELTQPPSVSVSPGQTASITCSGDNLGKKYVQWYQQKPGQSPVLVIYDDSNRPSGIPERFSGSNSGNTATLTISGTQAMDEADYYCQHWHGHPHHGEHNVFGGGTKLTVL please
*A* 21.8
